Listed here: items and their measured TGI.
# Test system: TK-10 renal
# test-method-notes: NCI tumour cell line growth inhibition, 48 h
Where a SMILES comes first, the peptide text is derived from it. The star is where a group is joined. Boc = CC(C)(C)OC(=O)*; OBn = c1ccc(CO*)cc1
Give the number; µM is assumed, so skip it.

Worked cases, answers included:
Cc1cc(C)c([O-])c(CN(C)CCN(C)Cc2cc(C)cc(C)c2[O-])c1.O=C([O-])c1cccc(C(=O)[O-])n1.[Ti+4]    5.47
O=c1[nH]c(C23CC4CC(CC(C4)C2)C3)cc2c1c(=O)oc1ccccc12    12.2
N=c1oc2ccc([N+](=O)[O-])cc2cc1C(=O)NCc1ccccc1    99.4
CC(O)c1cccc(NCc2c3ccccc3c(=O)n3c2oc2ccccc23)c1 (configuration not stated)    28
CC(C)=CCCC(C)c1ccc(C)c2c1OCN(CC1CCNCC1)C2 (configuration not stated)    29.3

response.value for COc1cc(OC)cc(C2CC(=O)Nc3c2c(C)nn3-c2nc3ccccc3[nH]2)c1 (configuration not stated) (field: TGI) = 45.5

response.value for CC(C)C(NC(=O)C(Cc1ccccc1)NC(=O)OC(C)(C)C)C(=O)NCC(=O)OCc1ccccc1 (stereo not drawn) (Boc-Phe-Val-Gly-OBn; configuration not given here) (field: TGI) = 27.1

###

# System: EKVX NSCLC
# test-method-notes: NCI tumour cell line growth inhibition, 48 h
Listed here: items and their measured TGI.

response.value for CCN(CC)C(=C(C(Cl)=C(Cl)Cl)[N+](=O)[O-])N(CC)CC (field: TGI) = > 100 µM

###

# Test system: OVCAR-3 ovarian
# test-method-notes: NCI tumour cell line growth inhibition, 48 h
Listed here: items and their measured log10 of TGI.
Please interpret these as log10 of TGI where TGI is in µM.

Worked cases, answers included:
CC(=O)C(I(OS(=O)(=O)c1ccc(C)cc1)c1ccccc1)=P(c1ccccc1)(c1ccccc1)c1ccccc1    1.75
COc1ccc2c(c1)/C(=C\c1c(C)nc3n1CCS3)C(=O)N2    1.88
O=C(/C=C/c1ccc(F)cc1)c1ccc(Cl)cc1Cl    1.86
ClC1(Cl)C(c2ccccc2)C1c1ccccc1 (stereo not given)    1.94
CSc1ccc(C2=NN(C(=O)c3ccc(F)cc3)C(c3ccc(F)cc3)C2)cc1 (stereo not given)    1.35
COc1cc(C(=O)/C(C)=C/c2c[nH]c3ccccc23)cc(OC)c1OC    -1.97
COC(=O)c1c(O)ccc2c1c1c(n2Cc2ccccc2)C(=O)c2ccccc2C1=O    1.68

We now examine a further compound.
Tested system OVCAR-3 ovarian; log10 of TGI recorded for O=C(O[C@H]1CN[C@H](C#Cc2cc3ncnc(Nc4ccc5c(ccn5Cc5cc(F)ccc5F)c4)c3s2)C1)N1CCOCC1 was 0.82

###

# Test system: SN12C renal
# test-method-notes: NCI tumour cell line growth inhibition, 48 h; in the data active = GI50 below about 0.43 µM; inactive = the rest
Just give me one of these, please: active, inactive

O=C1c2ccccc2-c2c1c1ccccc1c(=O)n2CCCNCCCn1ccnc1    active
CC(C)c1ccc(C(=O)Nc2nc3ccc(O)cc3s2)cc1    inactive
CCN(CC)CCCC(C)Nc1c2ccc(Cl)cc2nc2ccc(OC)cc12 (stereo not given)    inactive

Inquiry: Short answer needed: outcome of this test for CCN1CCN(C(=O)[C@]23CC[C@@H](C)[C@H](C)[C@@H]2C2=CC[C@@H]4[C@@]5(C)C/C(=C/c6ccncc6)C(=O)C(C)(C)[C@@H]5CC[C@@]4(C)[C@]2(C)CC3)CC1 ?
Reply text: inactive

Inquiry: Short answer needed: outcome of this test for Cn1c([N+](=O)[O-])cnc1/C=C1\Oc2ccccc2C1=O ?
Reply text: inactive

Inquiry: Short answer needed: outcome of this test for CC(C)(C#N)c1cc(Cn2cncn2)cc(C(C)(C)C#N)c1 ?
Reply text: inactive

Inquiry: Short answer needed: outcome of this test for CC(=O)[O-].CC(=O)[O-].[Pt+2].c1cscn1.c1cscn1 ?
Reply text: inactive

Inquiry: Short answer needed: outcome of this test for COc1cc(OC)cc(C2CC(=O)Nc3c2c(C)nn3-c2nc3ccccc3[nH]2)c1 (stereo not given) ?
Reply text: inactive

###

# Test system: PC-3 prostate
# test-method-notes: NCI tumour cell line growth inhibition, 48 h
Listed here: items and their measured TGI.

COC(=O)Nc1nc2ccc(S(=O)(=O)NC(CC(C)C)C(=O)OC)cc2[nH]1 (configuration not stated)    > 100 µM
Nc1nc(Cl)c(N)c(NCC2(CO)CCC2)n1    > 100 µM
COC(=O)c1cc2c(o1)Sc1ccccc1NC2=O    > 100 µM

response.value for CCC(Sc1cc(Cl)c(C)cc1S(=O)(=O)Nc1nc(N)nc(N(C)C)n1)C(=O)O (configuration not stated) (field: TGI) = > 10 µM

response.value for CC(=O)O[C@H]1CC[C@H]2[C@@H]3CCC4C(C)=NNC(=O)C4[C@H]3CC[C@]12C (some centres not stated) (field: TGI) = > 100 µM

response.value for O=c1ccn(C2OC(CO)C(O)C2F)c(=O)[nH]1 (configuration not stated) (field: TGI) = > 1000 µM

response.value for O=C(/C=C/c1ccc(F)cc1)c1ccc(Cl)cc1Cl (field: TGI) = 96.8 µM

response.value for N#CC(C#N)N=Cc1ccncc1 (field: TGI) = > 100 µM

response.value for COc1ccc2c(c1)/C(=C\c1c(C)nc3n1CCS3)C(=O)N2 (field: TGI) = 55.2 µM

response.value for COC(=O)C(Cc1cn(C(C)=O)c2ccccc12)P(=O)(OC)OC (configuration not stated) (field: TGI) = > 100 µM

response.value for Cc1cc(C)c([O-])c(CN(C)CCN(C)Cc2cc(C)cc(C)c2[O-])c1.O=C([O-])c1cccc(C(=O)[O-])n1.[Ti+4] (field: TGI) = > 100 µM

response.value for O=[n+]1c2ccccc2n([O-])c2ccccc21 (field: TGI) = > 100 µM

###

# System: OVCAR-5 ovarian
# test-method-notes: NCI tumour cell line growth inhibition, 48 h
Listed here: items and their measured TGI.
Give the number; µM is assumed, so skip it.

CC1=C2[C@@H](CC1)[C@]1(C)O[C@@](C3CCCCC3)(C[C@H]1OC(=O)CO)[C@H]2OC(=O)/C=C/c1ccccc1    37.1
CC(=O)C(I(OS(=O)(=O)c1ccc(C)cc1)c1ccccc1)=P(c1ccccc1)(c1ccccc1)c1ccccc1    60.2

We now examine a further molecule.
response.value for C=C1C(=O)O[C@H]2[C@H]1CC/C(CNC(=O)c1cc3cc(OC)ccc3[nH]1)=C\CC[C@@]1(C)O[C@@H]21 (field: TGI) = 7.35

###

# Tested on: 786-0 renal
# test-method-notes: NCI tumour cell line growth inhibition, 48 h
Listed here: items and their measured TGI.

Cc1cc([C@H](C#N)c2nc3ccccc3[nH]2)nc(Cl)n1    > 100 µM
COc1ccc(NC(=O)C(=O)C(C(=O)c2ccccc2)C2OC(=O)c3ccccc32)c([N+](=O)[O-])c1 (centres undefined)    > 100 µM

response.value for O=c1ccn(C2OC(CO)C(O)C2F)c(=O)[nH]1 (centres undefined) (field: TGI) = > 1000 µM

response.value for CCCCCCCCCCCCCCCCCCNc1ccn(C2OC(COP(=O)(O)OC3CC(n4cc(F)c(=O)[nH]c4=O)OC3COP(=O)(O)OCC3OC(n4ccc(N)nc4=O)C(O)C3O)C(O)C2O)c(=O)n1 (centres undefined) (field: TGI) = > 58.1 µM

response.value for CC(C)=CCCC(C)c1ccc(C)c2c1OCN(CC1CCNCC1)C2 (centres undefined) (field: TGI) = 26.3 µM

response.value for CC1(C)C2CCC3=C(CCC4(C)C5C[C@](C)(C(=O)O)CC[C@]5(C)CC[C@]34C)[C@@]2(C)CC[C@@H]1O (some centres undefined) (field: TGI) = 29.3 µM

response.value for O=c1[nH]c(C23CC4CC(CC(C4)C2)C3)cc2c1c(=O)oc1ccccc12 (field: TGI) = 3.1 µM

response.value for COc1cc(OCc2ccc3nc(-c4ccccc4)c(Cl)nc3c2)cc(OC)c1OC (field: TGI) = > 100 µM

response.value for CC(=O)[O-].CC(=O)[O-].[Pt+2].c1cscn1.c1cscn1 (field: TGI) = > 100 µM

###

# System: HCC-2998 colon
# test-method-notes: NCI tumour cell line growth inhibition, 48 h
endpoint-name: TGI (µM)
Give the number; µM is assumed, so skip it.

CCOC(=O)C(SCCO)C(C(=O)OCC)n1cnc2c(N)ncnc21 (stereo not given)    30.4

We now examine a further compound.
response.value for COc1cc(Nc2nccc(Nc3ccc4c(C)[nH]nc4c3)n2)cc(OC)c1OC (field: TGI) = 8.46
